Assignment: determine reported differential viability (reversal) for the given molecules.
Experimental details: reversal of MRP1-mediated doxorubicin resistance, pilot screen, H69AR cells, doxorubicin co-treatment (AID 601)
Test context: H69AR cells + 2 uM doxorubicin, CellTiter-Glo, 72 h; at 10 µM; stronger effect = higher value
Answers are plain numbers, in %.

Examples with their reported differential viability (reversal) follow.
CCc1nnc(NC(=O)C2CCN(c3nccc(C)n3)CC2)s1	5.65
COCCSc1nnc(NC(=O)Cc2ccccc2OC)s1	7.86
O=c1cc(-c2ccc(Cl)cc2)[nH][nH]1	5.75
O=C(NCc1ccccc1)N1CCn2c(nc3ccccc32)C1	14.2
COc1ccc(C2/C(=C(/O)c3cnn(-c4ccccc4)c3C)C(=O)C(=O)N2CCN(C)C)cc1OC (configuration not stated)	1.86

# batch size: 4; output differential viability (reversal) per entry
1. O=C(NCC1CCCO1)C1c2ccccc2C(=O)N1C1CCCCCC1 (configuration not stated)
2. COc1cc(C2C(C#N)=C(N)Oc3cc(N)ccc32)cc(OC)c1OC (configuration not stated)
3. COC(=O)C1=C(N)Oc2cc(C)[nH]c(=O)c2C1c1ccncc1 (configuration not stated)
4. Cc1ccc(Cn2nnc3c(=O)n(CC(=O)NCC4CCCO4)cnc32)cc1 (configuration not stated)

1. 6.58
2. -28.8
3. 7.35
4. 13.4

Consider the following items and state reported differential viability (reversal) for each.
1. Oc1cnc2ccccc2c1CN1CCOCC1
2. Cc1cnc(C(=O)OCC(=O)Nc2ccc(Oc3ccccc3)cc2)cn1
3. C=C(C)Cn1c(SCC)nc2ccccc2c1=O

1. -2.39
2. 9.6
3. -3

---

Experimental details: reversal of MRP1-mediated doxorubicin resistance, pilot screen, H69AR cells, doxorubicin co-treatment (AID 601)
Test context: H69AR cells + 2 uM doxorubicin, CellTiter-Glo, 72 h; measured here: viability with 2 uM doxorubicin; at 10 µM; stronger effect = lower value
Could you mark each record satisfied if its viability falls strictly under 90%, and not satisfied if it equals or exceeds it?

Solved entries:
O=C(c1ccc2c(c1)c(=O)oc1ccccc12)N1CCCCC1	satisfied
Cc1cccc(COc2ccc(/C(O)=C3\C(=O)C(=O)N(CCN(C)C)C3c3ccncc3)cc2)c1 (stereo not drawn)	not satisfied
Cc1nc2c(=O)oc3ccccc3c2n1-c1ccccc1	satisfied
CCC(=O)N1Cc2ccccc2-c2ccccc2C1=O	satisfied
O=c1c2c3nc4ccccc4nc3n(CC3CCCO3)c2ncn1CCc1ccccc1 (stereo not drawn)	satisfied

# TODO verify viability < 90% strictly for this molecule: "CCOC(=O)C1=C(C)NC(C)=C(C(=O)OCC)C1c1cc(N)ccc1OC(F)F"
not satisfied

Just wondering, is viability of "[O-][n+]1c2ccc3nonc3c2nn1-c1ccccc1Cl" below 90%?
satisfied

In the record for OCc1nc2ccccc2n1CC(O)Cn1ccc2ccccc21 (stereo not drawn) , is viability less than 90%?
not satisfied

Would you kindly verify if viability of "CCOC(=O)c1sc(C)c2c(=O)n(CC)nnc12" is strictly less than 90%?
not satisfied

Regarding "Cc1cnc(NC(=O)CSc2nc3ccccc3c(=O)[nH]2)s1" , kindly confirm whether its viability is beneath 90%.
satisfied

Would you kindly verify if viability of CCC(C)(C)n1nnnc1C(c1ccc(OC)c(OC)c1)N1CCN(c2ccc(F)cc2)CC1 (stereo not drawn) is strictly less than 90%?
satisfied

Given CC(NC(=O)c1ccccc1NC(=O)c1ccco1)C(=O)O (stereo not drawn) , is recorded viability strictly lower than 90%?
satisfied

Check if viability falls below 90% for "CCOC(=O)N1CCC(NC(=O)CCc2c(C)nc3c(c(C)nn3C(C)(C)C)c2C)CC1" .
satisfied

Check if viability falls below 90% for "Cc1cc(C)n(-c2ccc(C(=O)Nc3ccc4c(c3)OCCO4)cc2)n1" .
not satisfied

Does this molecule meet the criterion viability < 90%? "CCOC(=O)c1c(C)[nH]c(C(=O)Cn2c(=O)oc3ccccc32)c1C"
satisfied

Criterion: viability strictly below 90%. Is it met by "CCCCCc1c(O)c2ccccc2[nH]c1=O" ?
not satisfied

---

Experimental details: reversal of MRP1-mediated doxorubicin resistance, pilot screen, H69AR cells, doxorubicin co-treatment (AID 601)
Test context: H69AR cells, CellTiter-Glo, 72 h; compound alone cytotoxicity; at 10 µM
Endpoint name: viability (%)
Answers are plain numbers, in %.

Solved entries (count: 8):
CCc1ccc(C=NC23CN4CN(CN(C4)C2)C3)s1	105
COc1ccc(N2CCN(C(=O)CSc3nnc4n3C(C)(C)Cc3ccccc3-4)CC2)cc1	88.7
Cc1ccc(C(=O)CCC2CCCC2=O)cc1 (stereo not drawn)	89
CC(C)(C)C(=O)Oc1cc(N)n(S(=O)(=O)c2ccccc2)n1	87.1
COc1ccc(C(CC(=O)O)NC(=O)c2ccccc2)cc1OC (stereo not drawn)	83.6
CC1(C)Cc2noc(N)c2C(C)(C)N1O	95.6
Fc1ccc(NCc2nnc(SCc3nnc(-c4ccccc4)o3)n2CC2CCCO2)cc1 (stereo not drawn)	78.9
O=C(Cc1cccs1)Nc1ccccc1C(=O)O	103

Would you be so kind as to report viability for each listed record?
1. O=C(NCCCCNC(=O)c1cccnc1)c1cccnc1
2. COc1ccccc1N1CC(O)=C(c2nc3ccccc3c(=O)[nH]2)C1=N
3. Nn1c(SCC(=O)Nc2ccc(F)cc2)nnc1-c1cccnc1
4. CCOC(=O)N1CCN(c2c(NCC3CCN(Cc4cccc(C)c4)CC3)c(=O)c2=O)CC1
5. O=C(CCSc1nccn1Cc1ccccc1)N1CCOCC1
6. Cc1ccccc1-n1nnnc1SCC(=O)Nc1ccc(S(=O)(=O)N2CCCC2)cc1

1. 105
2. 71.7
3. 103
4. 107
5. 97
6. 85

---

Provide the recorded inhibition for the entries that follow.
Experimental details: 384-well plate pilot, post-Golgi transport modulator project, inhibition of yeast transport mutant growth (AID 636)
Test context: absorbance 615 nm, about 18 h, stronger effect = higher value
Activity calls are given as the source filed them. Cut-off read from the data, not from the text of the source: active = inhibition above about 31%; inactive = the rest.

Please give inhibition for each item listed below.
1. c1ccc2c(c1)sc1nnnn12
2. CC(=O)c1cccc(NC(=O)N2CCCc3ccccc32)c1
3. COc1ccc(-c2cc(C(F)(F)F)nc(N3CCN(c4ccc(F)cc4)CC3)n2)cc1OC
4. O=C(NCc1cccnc1)c1ccc(=O)oc1
5. O=C(N1CCCCCC1)N1CCN(C(=O)N2CCOCC2)CC1
6. CC(C)COC(=O)C1[C@H]2C(=O)N(Cc3cccs3)C[C@]23C=C[C@H]1O3 (stereo partly drawn)
7. Cc1ccc(S(=O)(=O)N2CCCC2C(=O)OCc2nc3ccccc3s2)cc1 (stereo not drawn)
8. Cc1cccc(Nc2nc(N)nc(CN3CCC(C(N)=O)CC3)n2)c1C

["-5.07% (inactive)", "-3.73% (inactive)", "-2.97% (inactive)", "-5.81% (inactive)", "0.92% (inactive)", "-4.29% (inactive)", "-7.95% (inactive)", "-5.58% (inactive)"]

# per-item lookup of inhibition; items listed below
1. COC(=O)c1sc(N2C(=O)C(O)=C(C(=O)c3ccc(C)o3)C2c2ccc(F)cc2)nc1C (stereo not drawn)
2. O=C(Nc1ccc(OC(=O)c2ccco2)cc1)c1ccco1
3. Cc1cc(Cl)c(S(=O)(=O)NC2CCCCC2)cc1OCC(=O)Nc1nncs1

1: -1.08% (inactive); 2: -5.73% (inactive); 3: -4.74% (inactive)

---

Experimental details: reducers of endogenous Her2 protein level, primary screen, SKBR3 breast tumor cells, AlphaScreen, ATP viability (AID 461);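 note: percent of carrier control wells set as 100% viability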
Test context: 18-24 h, measured here: SKBR3 viability, ATP luminescence, at 10 µM
What viability was measured for each of the following?
One number for each entry, in %.

These recorded examples may help you get a feel for the data.
COc1ccc(C2CC(c3ccccc3)Nc3nc(NC(=O)c4cccs4)nn32)cc1 (stereo unspecified)	81.5
Cc1ccccc1NC(=O)c1c(F)c(F)c(F)c(F)c1F	90.5
CC(=O)Nc1ccccc1OCc1nnc(-c2cccs2)o1	97

Please state, for each entry, its recorded viability.
1. Cc1cc(C)cc(NC(=O)C2CCCN(c3nccc(C)n3)C2)c1 (stereo unspecified)
2. CCS(=O)(=O)NCCc1cc2c(OC)ccc(OC)c2[nH]c1=O
3. [O-][n+]1c2c(nn1-c1ccccc1Cl)-c1nonc1CC2
4. CCCNC(=O)NC(C(=O)OC)C12CC3CC(CC(C3)C1)C2 (stereo unspecified)

1: 85; 2: 95.5; 3: 102; 4: 101

---

Experimental details: HUVEC growth inhibition – cell-based, human, primary screen (AID 575);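 note: 100% = median of untreated cell wells with 0.1% DMSO on each plate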
Test context: HUVEC proliferation, CellTiter-Glo luminescence, 72 h; at 10 µM; stronger effect = lower value
The source made the active and inactive calls.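 Rule for the calls: active = viability at or below 30% in both replicate assays; inconclusive = viability at or below 30% in just one of the two assays; inactive = the rest.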
Give viability for every item shown.

Below are worked cases with known answers.
C=CCc1c(C)nc(SC)nc1Nc1ccc(C(=O)O)cc1	84.2% (inactive)
Cc1nnc(NC(=O)Nc2cccc(Cl)c2)s1	76.8% (inactive)
O=C(Nc1nc2c(s1)CCc1ccccc1-2)c1cccs1	72.2% (inactive)

Provide viability values for the following items, in order.
1. CCC(=O)c1ccc(OC(=O)c2ccc(Br)o2)cc1
2. COc1ccc2c(C(=O)CN(C)C3CCCCC3)c[nH]c2c1
3. COC(=O)CCC(=O)Nc1cccc(Cl)c1
4. O=C(c1ccc(Cl)cc1)C1CCN(C(=O)NC2CCCCC2)CC1
5. Cc1[nH]n2c(=O)cc(Cc3ccccc3)nc2c1C#N
6. CCOc1ccc(Cc2nn[nH]n2)cc1

["98% (inactive)", "92.3% (inactive)", "90.1% (inactive)", "101% (inactive)", "97.1% (inactive)", "108% (inactive)"]

Please report viability for every entry that follows.
1. CC(=O)Nc1ccc(S(=O)(=O)N2CCC(c3nc4ccccc4[nH]3)CC2)cc1
2. COc1ccc(N2CCN(CCCNC(=O)CC3Oc4ccc(C)cc4NC3=O)CC2)cc1 (configuration not stated)
3. Cc1cc(NCCN2CCCCC2)n2c(nc3ccccc32)c1C#N

["78.9% (inactive)", "88.9% (inactive)", "96.2% (inactive)"]
